- Target Of Assay: CB2 receptor (Homo sapiens (Human))
- Sequence (P34972 whole entry): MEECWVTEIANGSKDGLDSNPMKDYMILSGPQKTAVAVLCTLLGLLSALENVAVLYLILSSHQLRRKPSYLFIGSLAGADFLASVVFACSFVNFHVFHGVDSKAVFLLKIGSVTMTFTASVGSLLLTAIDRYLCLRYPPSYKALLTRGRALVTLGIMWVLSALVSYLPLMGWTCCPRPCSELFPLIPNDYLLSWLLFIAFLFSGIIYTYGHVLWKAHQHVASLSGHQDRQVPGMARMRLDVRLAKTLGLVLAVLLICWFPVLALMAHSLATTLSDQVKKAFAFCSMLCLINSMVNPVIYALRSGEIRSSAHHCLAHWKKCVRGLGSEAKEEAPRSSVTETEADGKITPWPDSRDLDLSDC
Quantity: pKi
One number for each entry, as −log10 of the molar value.

Would you please look over these solved cases?
>  <Compound>
O=C(NC1CCCOc2c1nn(-c1ccccc1Cl)c2-c1ccc(Cl)cc1)c1ccncc1 (stereo not drawn) [BNS812]

>  <Quantity>
pKi

>  <Experimental Value>
5.89

$$$$
>  <Compound>
CCOC(=O)N1CCC(C(=O)NC2CCCOc3c2nn(-c2ccccc2Cl)c3-c2ccc(Cl)cc2)CC1 (stereo not drawn) [BNS816]

>  <Quantity>
pKi

>  <Experimental Value>
5.81

$$$$

Lab note: next compound to report on.
// query Please give the documented pKi of O=C(NC1CCCOc2c1nn(-c1ccccc1Cl)c2-c1ccc(Cl)cc1)C1CCN(S(=O)(=O)c2ccc(Cl)cc2)CC1 (stereo not drawn) [BNS825]
// result 6.90
